Target: human ether-à-go-go-related gene (hERG) potassium channel (human);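 further: peak tail current of the secondary pulse compared with the same well before compound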
Sequence (Q12809 whole entry, looked up): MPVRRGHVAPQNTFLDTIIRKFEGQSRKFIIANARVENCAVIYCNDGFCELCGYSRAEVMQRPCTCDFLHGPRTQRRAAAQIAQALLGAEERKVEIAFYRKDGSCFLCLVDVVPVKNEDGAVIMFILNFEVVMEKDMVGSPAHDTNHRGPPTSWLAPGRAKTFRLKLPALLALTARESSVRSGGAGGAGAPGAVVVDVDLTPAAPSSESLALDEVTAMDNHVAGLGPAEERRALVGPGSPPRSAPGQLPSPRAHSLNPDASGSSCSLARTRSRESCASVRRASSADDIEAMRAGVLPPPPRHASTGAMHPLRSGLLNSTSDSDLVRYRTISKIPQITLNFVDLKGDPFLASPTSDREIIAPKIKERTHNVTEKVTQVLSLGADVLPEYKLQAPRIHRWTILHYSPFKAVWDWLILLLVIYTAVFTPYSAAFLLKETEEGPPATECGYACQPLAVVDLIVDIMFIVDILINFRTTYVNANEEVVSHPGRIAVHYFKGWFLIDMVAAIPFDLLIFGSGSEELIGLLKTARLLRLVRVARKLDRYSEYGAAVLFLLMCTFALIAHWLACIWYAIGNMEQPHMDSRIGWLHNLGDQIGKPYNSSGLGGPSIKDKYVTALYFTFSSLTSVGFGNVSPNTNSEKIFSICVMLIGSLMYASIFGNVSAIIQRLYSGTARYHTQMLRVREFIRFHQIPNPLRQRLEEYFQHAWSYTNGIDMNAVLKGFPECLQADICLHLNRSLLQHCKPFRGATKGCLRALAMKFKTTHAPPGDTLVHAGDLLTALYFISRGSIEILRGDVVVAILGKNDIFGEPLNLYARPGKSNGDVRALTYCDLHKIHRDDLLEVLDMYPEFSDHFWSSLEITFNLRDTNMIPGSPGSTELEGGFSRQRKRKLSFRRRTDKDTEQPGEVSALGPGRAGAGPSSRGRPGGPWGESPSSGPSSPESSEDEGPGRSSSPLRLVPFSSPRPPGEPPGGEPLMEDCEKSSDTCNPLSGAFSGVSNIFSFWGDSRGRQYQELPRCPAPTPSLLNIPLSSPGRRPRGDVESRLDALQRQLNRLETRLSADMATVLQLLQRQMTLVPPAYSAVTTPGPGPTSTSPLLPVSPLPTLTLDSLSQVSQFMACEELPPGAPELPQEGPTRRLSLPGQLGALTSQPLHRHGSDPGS
Assay: primary screen, population patch clamp on CHO cells stably expressing hERG; higher = less effect of the substance
In all, about 310,000 compounds went through this assay and about 14,000 (4.5%) showed an effect of 50% or more. Effects have a minus sign here. Shown is part of a subset that was picked to be rich in strong results.
Label 0.0 if hERG current change (%, negative = inhibition) at 10uM falls below -50%; label 1.0 in every other case.

Below are worked cases with known answers.
*Q* Confirm if hERG current change (%, negative = inhibition) at 10uM reported for the molecule "O=C(c1ccc(F)cc1)N1CCC(N2CCOCC2)CC1" is -50% or above.
*A* 1.0

*Q* Form field: hERG current change (%, negative = inhibition) at 10uM at least -50%? Entry: N#Cc1ccccc1Sc1ccccc1C(=O)NCC(c1ccco1)N1CCCC1 (centres unmarked)
*A* 1.0

Further cases:
*Q* Hi team, for O=C(NCC(c1ccco1)N1CCCC1)c1ccccc1Sc1ccc(C(F)(F)F)cc1[N+](=O)[O-] (centres unmarked) , is the recorded hERG current change (%, negative = inhibition) at 10uM at or above -50%?
*A* 0.0

*Q* Item "Cn1cnnc1SCC(=O)Nc1cc(S(=O)(=O)N2CCCCCC2)ccc1Cl" with hERG current change (%, negative = inhibition) at 10uM of -50% or above?
*A* 1.0

*Q* State whether the measured hERG current change (%, negative = inhibition) at 10uM reaches -50%, counting equality as reaching it, for "COc1ccc(N2CCN(C(=O)c3cccc(Cn4cc(Cl)cn4)c3)CC2)cc1"
*A* 1.0

----------
Target: human ether-à-go-go-related gene (hERG) potassium channel (human);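 further: peak tail current of the secondary pulse compared with the same well before compound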
Experiment: primary screen, population patch clamp on CHO cells stably expressing hERG; higher = less effect of the substance
Hit rate of the full screen: of about 310,000 compounds, about 14,000 (4.5%) showed an effect of 50% or more. The effect is printed as a negative number. Only a selection was taken, and strong results are over-represented in it overall.
testReadout: hERG current change (%, negative = inhibition) at 10uM (%)
Number only, in %; omit the unit.

*Q* # get_value(readout='hERG current change (%, negative = inhibition) at 10uM', item= CC(C)CN(C(=O)COC(=O)c1ccc([N+](=O)[O-])o1)C1CCS(=O)(=O)C1 (stereo not drawn) )
*A* -31.8

Further cases:
*Q* Which hERG current change (%, negative = inhibition) at 10uM is listed for "COc1cc(/C=C2/SC(=S)N(CC(=O)O)C2=O)ccc1OCC(=O)Nc1ccc(C)c(C)c1" ?
*A* -6.69

*Q* Find the recorded hERG current change (%, negative = inhibition) at 10uM belonging to "CCc1ccc(CN2CCN(C(=O)c3ccco3)CC2)cc1.O=C(O)C(=O)O" and report it.
*A* -23.8

*Q* Entry under review: CCN(CC)C(=O)CC(c1ccc(F)cc1)c1ccc(OC)cc1 (stereo not drawn) . Reported hERG current change (%, negative = inhibition) at 10uM?
*A* -25.1

*Q* What value of hERG current change (%, negative = inhibition) at 10uM has been reported for the following compound? "CCc1ccc(NC(=O)C(=O)NCCN2CCN(C(=O)c3ccco3)CC2)cc1"
*A* -67

*Q* I am curious: what hERG current change (%, negative = inhibition) at 10uM value has been reported for "O=C(Nc1ccccn1)N1CCOCC1" ?
*A* 15.1

*Q* Quick one: hERG current change (%, negative = inhibition) at 10uM for "CCOC(=O)C1(Cc2cccc(OC)c2)CCN(Cc2cccc(OCC)c2O)CC1" ?
*A* -56.8

*Q* What hERG current change (%, negative = inhibition) at 10uM value was documented for this compound, "CCOC(=O)C1(Cc2ccccc2)CCN(Cc2cccc(OC)c2O)CC1" ?
*A* -69.6

*Q* What value of hERG current change (%, negative = inhibition) at 10uM has been reported for the following compound? "O=C(/C(C=Nc1ccc(F)cc1)=C(/O)c1ccco1)C(F)(F)F"
*A* -26.7

*Q* GET /values?readout=hERG current change (%, negative = inhibition) at 10uM&item= "CCNC(=O)C(=O)Nc1ccc([N+](=O)[O-])cc1"
*A* 2.37

----------
Biological target: human ether-à-go-go-related gene (hERG) potassium channel (human);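 further: peak tail current of the secondary pulse compared with the same well before compound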
Assay: primary screen, population patch clamp on CHO cells stably expressing hERG; higher = less effect of the substance
Out of some 310,000 compounds screened, about 14,000 (4.5%) showed an effect of 50% or more. The effect is printed as a negative number. The sample holds strong results, similar compounds and a random draw of the others, so the mix is not that of the screen.
testReadout: hERG current change (%, negative = inhibition) at 10uM (%)
Output spec: scalar in %, unitless text.

*Q* Looking for the measured hERG current change (%, negative = inhibition) at 10uM of CCOC(=O)C1CCCN(c2nnnn2-c2ccccc2)C1 (stereo not drawn) , can you help?
*A* -5.57

*Q* What does the data say about its hERG current change (%, negative = inhibition) at 10uM? Entry: COc1ccc(C2c3c(ccc4ccccc34)Oc3ncn4nc(-c5ccco5)nc4c32)cc1OC (stereo not drawn)
*A* -13.4

*Q* // hERG current change (%, negative = inhibition) at 10uM lookup, key: "COC(CNC(=O)[C@H](CSCc1ccccc1)N1Cc2ccccc2C1=O)OC"
*A* -3.49

*Q* For the compound shown here, "COc1cc(NC(=O)COc2cccc3c2OC(C)(C)C3)cc(OC)c1OC" , give the reported hERG current change (%, negative = inhibition) at 10uM.
*A* -6.09

*Q* Query (compound): COc1ccc(C2c3ccc(O)cc3Oc3ncn4nc(-c5ccccn5)nc4c32)cc1 (stereo not drawn) ; field requested: hERG current change (%, negative = inhibition) at 10uM
*A* 17.9

*Q* Look at this compound and give its reported hERG current change (%, negative = inhibition) at 10uM. "CS(=O)(=O)NCc1nnc(SCC(=O)NC2CCCCC2)n1-c1ccc(F)cc1"
*A* 11.6

*Q* If you can, please state the reported hERG current change (%, negative = inhibition) at 10uM value of "CC(C)CN(Cc1cc2ccccc2[nH]c1=O)C(=O)c1cccnc1" .
*A* -1.54

*Q* What value of measured hERG current change (%, negative = inhibition) at 10uM is listed for COc1ccc(C2c3ccc(O)cc3Oc3ncn4nc(-c5cccnc5)nc4c32)cc1OC (stereo not drawn) ?
*A* -56.9

*Q* Could you share which hERG current change (%, negative = inhibition) at 10uM value was measured for COc1ccc(C2c3ccc(O)cc3Oc3ncn4nc(-c5ccco5)nc4c32)cc1OC (stereo not drawn) ?
*A* 22.8

----------
Some compounds, each annotated with its measured hERG current change (%, negative = inhibition) at 10uM.
Molecular target: human ether-à-go-go-related gene (hERG) potassium channel (human);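 further: peak tail current of the secondary pulse compared with the same well before compound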
Experiment: primary screen, population patch clamp on CHO cells stably expressing hERG; higher = less effect of the substance
Out of some 310,000 compounds screened, about 14,000 (4.5%) showed an effect of 50% or more. Effects have a minus sign here. The list comes from a sample in which strong results are over-represented; it also holds close analogues and randomly drawn compounds.
The reply should be a number in %, with the unit left off.

Check out these entries, answers already filled in.
*Q* Quick one: hERG current change (%, negative = inhibition) at 10uM of "O=C(c1ccc([N+](=O)[O-])cc1)N1CCN(c2cccc3[nH]ccc23)CC1" ?
*A* -72.7

*Q* Look up hERG current change (%, negative = inhibition) at 10uM: "O=C(c1ccc(Cl)cc1)N1CCN(c2cccc3[nH]ccc23)CC1"
*A* 3.68

More entries:
*Q* Look up hERG current change (%, negative = inhibition) at 10uM for this compound: "O=C(COC(=O)COc1ccccc1[N+](=O)[O-])Nc1cccc(Br)c1"
*A* 9.05

*Q* Reported hERG current change (%, negative = inhibition) at 10uM, compound "O=C(c1cccc([N+](=O)[O-])c1)N1CCN(Cc2ccccc2)CC1" : ____
*A* -9.31

*Q* Record request: hERG current change (%, negative = inhibition) at 10uM value, item "O=C(c1cccc(Br)c1)N1CCN(c2ccccn2)CC1"
*A* -4.19

*Q* Item under review: "O=C(c1ccccc1)N1CCN(c2ncccn2)CC1" . Reported hERG current change (%, negative = inhibition) at 10uM?
*A* 17.6

*Q* Can you share its hERG current change (%, negative = inhibition) at 10uM? I mean this compound: "O=C(c1ccc(F)cc1)N1CCN(C(=O)c2ccc([N+](=O)[O-])cc2)CC1"
*A* -63.2

*Q* # query: hERG current change (%, negative = inhibition) at 10uM of entry "Cl.O=C(CCN1CCc2ccccc2C1)c1ccc2c(c1)OCCO2"
*A* -32.2

*Q* Which hERG current change (%, negative = inhibition) at 10uM is listed for "Cl.O=C(CCN1CCc2ccccc2CC1)c1ccc2c(c1)OCCO2" ?
*A* -60.6

*Q* For "O=C(CCCc1ccccc1)c1ccc2c(c1)OCCO2" , what is its reported hERG current change (%, negative = inhibition) at 10uM?
*A* -5.25
